B1: F1*; the commonest letter at each place (parent)
chain: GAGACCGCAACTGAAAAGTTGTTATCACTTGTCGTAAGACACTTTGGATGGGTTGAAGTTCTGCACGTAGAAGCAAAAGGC

Variants of: B1
PROTOCOL NOTES: fraction ligated after 30 min (ligated reads / total reads); higher = more ligase activity
MEASUREMENT SETUP: with F1*sub RNA substrate (template-directed ligation), 42 °C
Kindly return fulfilled if reported fraction ligated is no lower than 0.8; return not fulfilled if it is lower.

A56G A57T :: not fulfilled

## Input Entry A24T G31A : is its fraction ligated no less than 0.8?
## Output not fulfilled

## Input Try this variant too: A36G C42G
## Output fulfilled

## Input Try this variant too: G50A A56T
## Output not fulfilled

## Input Try this variant too: T29C A57G
## Output fulfilled

## Input Try this variant too: C26A G47A
## Output not fulfilled

## Input Try this variant too: T23C A56C
## Output not fulfilled

## Input Try this variant too: A27G G50A
## Output not fulfilled

## Input Try this variant too: T23G C26G
## Output not fulfilled

## Input Try this variant too: A36G G38C
## Output fulfilled

## Input Try this variant too: T25A G31A
## Output not fulfilled

## Input Try this variant too: T49G A57T
## Output not fulfilled

## Input Try this variant too: T23G A39C
## Output not fulfilled

## Input Try this variant too: G47T G50A
## Output not fulfilled

## Input Try this variant too: C26T T30C
## Output fulfilled

## Input Try this variant too: G34A A57G
## Output fulfilled

## Input Try this variant too: T23C C26G
## Output not fulfilled

## Input Try this variant too: C33A T43C
## Output fulfilled

## Input Try this variant too: C28T G55C
## Output not fulfilled

## Input Try this variant too: A37T
## Output fulfilled

## Input Try this variant too: T23G G31C
## Output fulfilled

## Input Try this variant too: A27G T49G
## Output not fulfilled

## Input Try this variant too: C33A A36T
## Output fulfilled

## Input Try this variant too: T32A G50T
## Output not fulfilled

## Input Try this variant too: G46A A56G
## Output not fulfilled

## Input Try this variant too: C42G G47T
## Output not fulfilled
